target: Melanocortin receptor 4 (Homo sapiens, UniProt P32245); also: assay procedure not described here
Sequence (P32245 whole entry): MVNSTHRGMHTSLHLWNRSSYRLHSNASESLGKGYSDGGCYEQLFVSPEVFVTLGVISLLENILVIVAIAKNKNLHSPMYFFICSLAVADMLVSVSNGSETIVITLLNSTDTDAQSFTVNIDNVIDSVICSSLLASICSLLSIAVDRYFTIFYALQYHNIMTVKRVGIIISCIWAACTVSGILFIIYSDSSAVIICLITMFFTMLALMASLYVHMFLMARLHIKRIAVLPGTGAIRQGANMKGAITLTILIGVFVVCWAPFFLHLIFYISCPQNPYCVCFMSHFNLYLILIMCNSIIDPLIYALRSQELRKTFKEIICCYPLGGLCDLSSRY
MEASURE: AC50

Retrieve AC50 measured for C[C@](N)(Cc1ccc(O)c(O)c1)C(=O)O [METHYLDOPA] and print it.
> 10 µM

Retrieve AC50 measured for CS(=O)(=O)c1ccc(C2=C(c3ccccc3)C(=O)OC2)cc1 [ROFECOXIB] and print it.
24.1 µM

Retrieve AC50 measured for CC(C)C[C@H]1C(=O)N2CCC[C@H]2[C@]2(O)O[C@](NC(=O)[C@@H]3C=C4c5cccc6[nH]c(Br)c(c56)C[C@H]4N(C)C3)(C(C)C)C(=O)N12 [BROMOCRIPTINE] and print it.
> 30 µM

Retrieve AC50 measured for CN(C)CCC=C1c2ccccc2C=Cc2ccccc21 [CYCLOBENZAPRINE] and print it.
> 30 µM

Retrieve AC50 measured for CCC(C)n1ncn(-c2ccc(N3CCN(c4ccc(OCC5COC(Cn6cncn6)(c6ccc(Cl)cc6Cl)O5)cc4)CC3)cc2)c1=O (configuration not stated) [ITRACONAZOLE] and print it.
> 30 µM

Retrieve AC50 measured for NCC[C@H](O)C(=O)N[C@@H]1C[C@H](N)[C@@H](O[C@H]2O[C@H](CN)[C@@H](O)[C@H](O)[C@H]2O)[C@H](O)[C@H]1O[C@H]1O[C@H](CO)[C@@H](O)[C@H](N)[C@H]1O [AMIKACIN] and print it.
> 10 µM

Retrieve AC50 measured for COC(=O)C1=C(C)NC(C)=C(C(=O)OC(C)(C)CN(C)CCC(c2ccccc2)c2ccccc2)C1c1cccc([N+](=O)[O-])c1 (configuration not stated) [LERCANIDIPINE] and print it.
> 30 µM
